# tested_on: human collagen type I (Homo sapiens, UniProt P02452+P08123)
# Construct: Acid soluble human collagen extracted from placenta; purchased Sigma C7774; host or cells: human placenta (tissue extract)
# Sequence (P02452 162-1218 limits assumed): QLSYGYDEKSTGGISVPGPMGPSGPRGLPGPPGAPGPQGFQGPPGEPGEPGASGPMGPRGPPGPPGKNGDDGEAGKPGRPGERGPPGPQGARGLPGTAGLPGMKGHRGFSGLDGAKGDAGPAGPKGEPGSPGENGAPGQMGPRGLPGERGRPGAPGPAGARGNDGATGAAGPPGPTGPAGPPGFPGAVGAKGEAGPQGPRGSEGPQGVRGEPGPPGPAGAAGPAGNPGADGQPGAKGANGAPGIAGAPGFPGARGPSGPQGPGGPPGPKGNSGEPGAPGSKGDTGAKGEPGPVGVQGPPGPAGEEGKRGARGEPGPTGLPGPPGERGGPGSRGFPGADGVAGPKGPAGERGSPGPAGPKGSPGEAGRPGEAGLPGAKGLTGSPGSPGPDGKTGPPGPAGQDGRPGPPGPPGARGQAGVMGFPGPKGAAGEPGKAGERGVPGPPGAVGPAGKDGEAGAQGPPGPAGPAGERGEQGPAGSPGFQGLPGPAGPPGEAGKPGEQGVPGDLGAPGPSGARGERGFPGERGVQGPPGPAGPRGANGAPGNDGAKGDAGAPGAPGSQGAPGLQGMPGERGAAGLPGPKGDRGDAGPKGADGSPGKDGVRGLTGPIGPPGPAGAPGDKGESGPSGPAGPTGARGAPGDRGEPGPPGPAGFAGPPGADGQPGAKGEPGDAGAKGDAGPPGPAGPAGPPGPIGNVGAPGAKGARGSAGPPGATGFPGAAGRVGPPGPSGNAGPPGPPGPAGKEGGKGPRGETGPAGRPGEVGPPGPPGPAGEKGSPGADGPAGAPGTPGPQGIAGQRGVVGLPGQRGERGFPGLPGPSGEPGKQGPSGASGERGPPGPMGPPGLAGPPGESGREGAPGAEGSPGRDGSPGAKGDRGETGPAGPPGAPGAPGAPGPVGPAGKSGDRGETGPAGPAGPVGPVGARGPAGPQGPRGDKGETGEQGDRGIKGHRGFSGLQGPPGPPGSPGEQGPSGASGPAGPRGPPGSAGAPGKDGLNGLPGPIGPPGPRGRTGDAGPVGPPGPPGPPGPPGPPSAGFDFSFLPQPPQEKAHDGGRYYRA
# Sequence (P08123 80-1119 limits assumed): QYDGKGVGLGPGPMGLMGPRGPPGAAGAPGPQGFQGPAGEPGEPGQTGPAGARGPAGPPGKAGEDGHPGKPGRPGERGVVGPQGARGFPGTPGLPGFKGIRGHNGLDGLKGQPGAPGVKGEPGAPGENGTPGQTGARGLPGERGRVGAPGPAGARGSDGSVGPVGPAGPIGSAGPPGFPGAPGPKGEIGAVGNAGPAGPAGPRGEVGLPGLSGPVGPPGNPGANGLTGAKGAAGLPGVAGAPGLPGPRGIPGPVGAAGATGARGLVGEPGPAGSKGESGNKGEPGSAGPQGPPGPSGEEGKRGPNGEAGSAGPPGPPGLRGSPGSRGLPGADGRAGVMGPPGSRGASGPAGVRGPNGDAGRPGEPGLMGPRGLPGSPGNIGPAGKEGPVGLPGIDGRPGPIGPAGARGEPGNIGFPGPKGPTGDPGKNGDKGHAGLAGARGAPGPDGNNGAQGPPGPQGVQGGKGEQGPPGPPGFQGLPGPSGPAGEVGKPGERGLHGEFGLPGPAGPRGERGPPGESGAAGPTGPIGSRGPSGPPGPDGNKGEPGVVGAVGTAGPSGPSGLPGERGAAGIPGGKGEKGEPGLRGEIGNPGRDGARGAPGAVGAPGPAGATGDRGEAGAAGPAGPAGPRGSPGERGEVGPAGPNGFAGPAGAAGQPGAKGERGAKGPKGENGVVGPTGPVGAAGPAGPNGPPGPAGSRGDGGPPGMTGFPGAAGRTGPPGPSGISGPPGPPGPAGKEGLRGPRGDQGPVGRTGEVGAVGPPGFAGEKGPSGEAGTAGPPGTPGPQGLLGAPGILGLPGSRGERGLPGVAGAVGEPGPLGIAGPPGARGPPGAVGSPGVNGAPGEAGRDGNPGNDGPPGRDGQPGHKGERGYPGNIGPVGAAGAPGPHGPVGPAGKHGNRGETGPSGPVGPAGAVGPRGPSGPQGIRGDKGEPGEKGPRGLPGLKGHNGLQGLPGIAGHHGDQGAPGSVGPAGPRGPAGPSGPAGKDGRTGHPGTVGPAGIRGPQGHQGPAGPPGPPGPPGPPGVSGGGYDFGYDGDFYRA
# assay_info: Dried collagen assay (DCA), percent bound to dried human collagen
# Assay type: binding
# condition_context: Table 4, TN-10 peptides; 5 μM peptide, PBS pH 7.4
Provide the recorded Dried Human Collagen Binding for the entries that follow.
Note: unit % is implicit; provide only the numeric part.

Input 65 (KWECVHTKGEWYCETK) [compound 65] . Output Dried Human Collagen Binding: 7

Input 39 (GWQCSGDASVWNCDWI) [compound 39] . Output Dried Human Collagen Binding: 6

Input 38 (GWSCHGDAADWPCQWS) [compound 38] . Output Dried Human Collagen Binding: 6

Input 37 (LWNCHGTDANWKCVLN) [compound 37] . Output Dried Human Collagen Binding: 7

Input 36 (SWSCGGDHNAWKCQYS) [compound 36] . Output Dried Human Collagen Binding: 7

###

# tested_on: human collagen type I (Homo sapiens, UniProt P02452+P08123)
# Construct: Acid soluble human collagen extracted from placenta; purchased Sigma C7774; host or cells: human placenta (tissue extract)
# assay_info: Dried collagen assay (DCA), percent bound to dried human collagen
# Format: binding
# condition_context: Table 15, TN-10 peptides with -G- linker, D-amino acid scanning
observable: % Collagen Binding Dried Human (%)
Note: unit % is implicit; provide only the numeric part.

Input 176 (QWTCSGDEYTWHCNYE) [compound 176] . Output % Collagen Binding Dried Human: 2

Input 173 (QWTCSGDEYTWHCNYE) [compound 173] . Output % Collagen Binding Dried Human: 5

Input 174 (QWTCSGDEYTWHCNYE) [compound 174] . Output % Collagen Binding Dried Human: 5

Input 166 (QWTCSGDEYTWHCNYE) [compound 166] . Output % Collagen Binding Dried Human: 2

Input 165 (QWTCSGDEYTWHCNYE) [compound 165] . Output % Collagen Binding Dried Human: 2

Input 168 (QWTCSGDEYTWHCNYE) [compound 168] . Output % Collagen Binding Dried Human: 3

Input 175 (QWTCSGDEYTWHCNYE) [compound 175] . Output % Collagen Binding Dried Human: 2

Input 167 (QWTCSGDEYTWHCNYE) [compound 167] . Output % Collagen Binding Dried Human: 4
